# MEASURED_ON: T1, full-length mouse CD70 with C-terminal V5 tag (mouse, UniProt O55237 1-195)
# T1 construct: On transfected CHO cells; also called murine CD70
# T1 sequence: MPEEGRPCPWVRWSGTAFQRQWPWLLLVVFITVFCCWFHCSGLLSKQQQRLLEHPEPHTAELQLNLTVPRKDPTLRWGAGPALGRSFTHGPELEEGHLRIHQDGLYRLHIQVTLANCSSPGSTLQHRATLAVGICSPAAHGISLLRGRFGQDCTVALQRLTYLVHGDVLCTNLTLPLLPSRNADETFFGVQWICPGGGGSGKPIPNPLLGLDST
# TEST_SUMMARY: FACS on CHO cells, periplasmic scFv

BINDER	binding result
CD70-20 (scFv, As m32) scFv: EVQLLESGGGLVQPGGSLRLSCAASGFTFSTYAMSWVRQAPGKGLEWVSLISGSGGRTYYADSVKGRFTISRDNSKNTLYLQMNSLRAEDTAVYYCAKHDYSNYPYFDYWGQGTLVTVSSGGGGSGGGGSGGGGSEIVLTQSPGTLSLSPGERATLSCRASQGVRSDYLAWYQQKPGQALRLLIYGASSRATGIPDRFSGSGSGTDFTLTISRLEPEDFAVYHCQQYGSTPPTFGGGTKLEIK	no binding
CD70-10 (scFv, As m32) scFv: QVQLQESGPGLVKPSQTLSLTCTVSGDSIISGGYYWSWIRQHPGKCLEWIGYIFYSGSTDYNPSLKSRVTISVDTSKNQFSLKLSSVTAADTAVYYCARSGYSYALFDHWGQGTLVTVSSGGGGSGGGGSGGGGSDIQMTQSPSSLSASVGDRVTISCRASQFIGRYFNWYQQQPGKAPKVLIYAESSLQSGVPSRFSGSGSGTEFTLTISSLQPEDFARYYCQQSYSTPWTFGCGTKVEIK	no binding
CD70-43 (scFv, As m32) scFv: EVQLLESGGGVVQPGRSLRLSCAASGFTFSSYAMSWVRQAPGKGLEWVSAISGSGGRTFYADSVEGRFTISRDNSKNTLYLQMNSLRAEDTAVYYCAKHDYSNYPYFDYWGQGTLVTVSSGGGGSGGGGSGGGGSEIVLTQSPGTLSLSPGERATLSCRASQSVRSNYLAWYQQKPGQAPRLLIYGASSRATGIPDRFSGSGSGTDFTLTINRLEPEDFAVYYCQQYGSSPPTFGGGTKVDIK	no binding
